Reported apparent KD of MS2 coat protein values for the following sequences.
Test system: MS2 coat protein
assayProcedure: apparent KD of MS2 coat protein; designed switch direction (-1 OFF switch, 1 ON switch): -1; higher = weaker reporter binding
measurementContext: Eterna round: R95; input ligand: FMN 200 uM
A bare number is not enough; add the unit after it.

sequenceChain	result
AAAAAGGUAGGAUAUACGAAAAAAAAGGGUAGAAAAAAAACACAUGAGGAUCACCCAUGUAGAAGGACCAAAAG [salish99_ex2_r3_045] (puzzle: Exclusion 2)	58.7 nM

In plain terms, AGUAGUAGUAUCCGUUCUUACAUGAGGAUCACCCAUGUUUCUAGACGUGCACGCGAUGCUCGUCAGACUACCAGAUG [salish99_TOv1_r3_054] (puzzle: Sensor v3, turn-off variant 1) has a documented apparent KD of MS2 coat protein of 61.2 nM

The sequence listed as UUUAAUUUUUUUUUUUUACAAGCUUUUUGCUCGUCUUAUACAUGAGGAUCACCCAUGUGGGUGGGAAGUAAAUUAUC [JMF 56] (puzzle: Sensor v3, turn-off variant 2) has a reported apparent KD of MS2 coat protein of 59 nM

====

System: MS2 coat protein
assayProcedure: apparent KD of MS2 coat protein; designed switch direction (-1 OFF switch, 1 ON switch): -1; higher = weaker reporter binding
measurementContext: input ligand: FMN 200 uM
We use 30 nM as the dividing line for apparent KD of MS2 coat protein: on or above the line is 1, below is 0.

# count of solved cases: 3
sequenceChain	category
AUGGGUACUUUCGGAGCGACAUGAGGAUCACCCAUGUAUAUUGAGGAUAUCCACUGCUAAGGACGGGAGAAGGCAGUGUACUGU [Ex NG3 #82] (Eterna round: R96, puzzle: Exclusion NG 3)	1
CGGAAAUCCUAGGAUAUGCUAGACGAAAGUCUAGCAGAAGGAGGAACAUGAGGAUCACCCAUGUGUCCUAUCCG [Mat - Exclusion 6 - Eli Mod - D16] (Eterna round: R97, puzzle: Exclusion 6)	0
UUUAAUUGUCACAUGGGUGACAUGAGGAUCACCCAUGUCACAAGCUUUUUGUUCGUCUUAUAAUUAACCCAUGUGAC [Stov1/12-B1] (Eterna round: R97, puzzle: Sensor, turn-off variant 1)	0

Shift focus to the following entry.
Problem: Can CGUGUAGGAGUAGGAUAUGCGUCUAGACUACGAGCAGAAGGACUCCAGGACUUGAGGAUCACCCAAGUGCGUCCCGAGCCGUAG [Mutated MS2 EX1.23] (Eterna round: R96, puzzle: Exclusion NG 1) be said to have apparent KD of MS2 coat protein at or above 30 nM?
Solution: 0

====

System: MS2 coat protein
assayProcedure: apparent KD of MS2 coat protein; designed switch direction (-1 OFF switch, 1 ON switch): -1; higher = weaker reporter binding
measurementContext: input ligand: FMN 200 uM
propertyName: apparent KD of MS2 coat protein (nM)
The reply should be a number in nM, with the unit left off.

Answered cases to consult:
sequenceChain	apparent KD of MS2 coat protein [nM]
CCCUCACAUGAGGAUCACCCAUGUAAGGAUAUCUUCGCUUUGACGUUGUUGAAUGCGAAGAGAAGGUGCACGGC [jl-ex1-4.71 ViennaUCT mod] (Eterna round: R97, puzzle: Exclusion 1)	43
GGUUGGCGAGGAUAUACAUGAGGAUCACCCAUGUGGUCCUAAGGCUGAUCAAGCCUAUGUAGAAGGCGCAAAUC [salish99_ex3_r4_010] (Eterna round: R97, puzzle: Exclusion 3)	37.7
GUGAAGUAAGGAUAUACAUGAGGAUCACCCAUGUGGAGGAAGGUGAUGGGAGUAGGUAGUAGAAGGUACGAGGA [JR_Exclu3_Sub064] (Eterna round: R96, puzzle: Exclusion 3)	304

Pending sequence:
apparent KD of MS2 coat protein for GCAGACGUAGUGAGGAUAUGCUCUACCUCGGUAGAGCAGAAGGCACAUGAGGAUCACCCAUGUGGUUCCUCAUC [Omei Ex4B B19] (Eterna round: R97, puzzle: Brourd's mod of Exclusion 4) is 54

====

Test system: MS2 coat protein
assayProcedure: apparent KD of MS2 coat protein; designed switch direction (-1 OFF switch, 1 ON switch): -1; higher = weaker reporter binding
measurementContext: Eterna round: R95; input ligand: microRNA oligo, concentration not stated
propertyName: apparent KD of MS2 coat protein (nM)
Number only, in nM; omit the unit.

get_value(item= UGUACGAUGCGUGCUGACAUGCGUCGUGCAGCAGGUGUUACAUGAGGAUCACCCAUGUCCUCAUUUGCUCGUCUUGU [SL-sv3-2.09 JL mod] (puzzle: Sensor v3, turn-off variant 2) , readout=apparent KD of MS2 coat protein) returns 185

Memo: GCAGGAUAAGUGAGGAUAUACCUAUGGAUACAUAGGUAGAAGGCACAUGAGGAUCACCCAUGUUCCUUACCUGC [Fiskers BMX 4 - 66] (puzzle: Brourd's mod of Exclusion 4) , reported apparent KD of MS2 coat protein: 11.5

The reported apparent KD of MS2 coat protein of the sequence AAAAAGGUAGGAUAUACGAAAAAAAAGGGUAGAAAAAAAACACAUGAGGAUCACCCAUGUAGAAGGACCAAAAG [salish99_ex2_r3_045] (puzzle: Exclusion 2) was 32

Recorded result, UAUUAGCAAGUAAGGUCCCACAUGAGGAUCACCCAUGUGCUCGUCUUAUAAGGUACUGUGACGAAAGUCACGGUACC [Sensor 3, v1 - 95] (puzzle: Sensor v3, turn-off variant 1) , apparent KD of MS2 coat protein: 585

====

Each entry below lists one item and its recorded apparent KD of MS2 coat protein value.
Test system: MS2 coat protein
assayProcedure: apparent KD of MS2 coat protein; designed switch direction (-1 OFF switch, 1 ON switch): -1; higher = weaker reporter binding
measurementContext: Eterna round: R95; input ligand: none
Only the number, expressed in nM, is required.

Guide cases for apparent KD of MS2 coat protein, answers given:
sequenceChain	unitOfMeasurement	apparent KD of MS2 coat protein
AGGUGAUAUCUGUCGAUGGACAUGAGGAUCACCCAUGUGAGCUUUUUGCUCGUCUUAUAAACCGGUGACAGACCUUC [Sensor v3, turn-off variant 1 (MOD of Zalaso)] (puzzle: Sensor v3, turn-off variant 1)	nM	69.4
AGUAGAUCUACGCUUGCGUGGAUCUGCGAGGCAGGUGUAACAUGAGGAUCACCCAUGUCCUCAUUUGUUCGUCUUAU [JL turnoff v2 99.19] (puzzle: Sensor v3, turn-off variant 2)	nM	477
CAGUACUGAGGAUAUACAUGAGGAUCACCCAUGUGUUCCAGGUAGGAAACUAGCAAAAGUAGAAGGCAGUACUG [salish99_ex3_r3_078] (puzzle: Exclusion 3)	nM	20.4

According to the records, this sequence AUGAGGUUAGGAUAUACAUGAGGAUCACCCAUGUUGAAAGGAUAGAUAAGAAAAGAUAGUAGAAGGAACAAAGA [JR_Exclu3_Sub052] (puzzle: Exclusion 3) displays apparent KD of MS2 coat protein of 39.2

UUAGUGUGAGGAUAUGGUAAAGAUAAGAUGAUGAAAGAACUCCAGAAGGCACAUGAGGAUCACCCAUGUAGAUG [JL-ex4-2.13 Jieux mod] (puzzle: Exclusion 4) has a reported apparent KD of MS2 coat protein of 30.6

====

Below, each entry is listed with its recorded apparent KD of MS2 coat protein.
Tested on: MS2 coat protein
assayProcedure: apparent KD of MS2 coat protein; higher = weaker reporter binding
measurementContext: Eterna round: R107; input ligand: arginine 13.2 mM
Your answer should be a plain number; it is taken to be in nM.

>>> print(df.to_string())
                              sequencechain                     propertyname  quantitativereadout
0  GAGCUGAUGUAGAGAUUAUAUAAAAGAGAUACCAGUACAGAAAUGUACCCUUGGCAGCUCAACUUUACAUGAGGAUCACCCAUGU [Ex Theophylline A 19]  apparent KD of MS2 coat protein                 15.4
1  UCUAGGCUCGGAAACGAGCCUAGUACAGAAGGAGCGUGGAUUAACACAGGUAGGUCGCUGACAUGAGGAUCACCCAUGUAUUAUU [SSAA #3]  apparent KD of MS2 coat protein                 32.5

Now examine the next entry.
Entry GUUAUGGACCUGGAUACCAGCUGGUACAAGGGCGGUCUACAUGAGGAUCACCCAUGUGUCAGCCCUUGGCAGCCAGCAACCCACU [Cele] — recorded apparent KD of MS2 coat protein = 10.6

====

Tested on: MS2 coat protein
assayProcedure: apparent KD of MS2 coat protein; designed switch direction (-1 OFF switch, 1 ON switch): -1; higher = weaker reporter binding
measurementContext: Eterna round: R95; input ligand: FMN 200 uM
propertyName: apparent KD of MS2 coat protein (nM)
// note: answer is a bare numeric in nM

As a guide, the following entries are already answered.
sequenceChain	system	propertyName	quantitativeReadout
AGUAACUAUCACGAAAGUGAUAGUUACAAAACAAGUGAAACAUGAGGAUCACCCAUGUCCUCAUUUGCUCGUCUUAU [Sensor 3 - 2] (puzzle: Sensor v3, turn-off variant 2)	MS2 coat protein	apparent KD of MS2 coat protein	118
AAAUACAAGUAAAGAUCUUACAUGAGGAUCACCCAUGUGCUCGUCUUAUAAAGUACUAUCACGAAAGUGAUAGUACA [Sensor 3, v1 - 25] (puzzle: Sensor v3, turn-off variant 1)	MS2 coat protein	apparent KD of MS2 coat protein	15.9
AAGAAACGAGGAUAUACAAUUAAGAGAGAGAAGGAAAUGAGACAUGAGGAUCACCCAUGUAGAAGGCGUAAGAA [JR_Exclu2_Sub082] (puzzle: Exclusion 2)	MS2 coat protein	apparent KD of MS2 coat protein	27.6

Summary: GAGAAGGUAGGAUAUACGAAGAAAGAGGGUAGUAAUAAUACACAUGAGGAUCACCCAUGUAGAAGGACCAAGAG [Mat - Exclusion 2 - Mod of my Tesla design - D45] (puzzle: Exclusion 2) , MS2 coat protein, apparent KD of MS2 coat protein = 35.9

Query AAUAACAGGCCGAUCCUAAACAUGAGGAUCACCCAUGUGCGCGUCUUGUAAAGUACUAUCACGAAAGUGAUAGUACA [Sensor v3, turn-off variant 1 (MOD of Eli's v1-59 v.3)] (puzzle: Sensor v3, turn-off variant 1) on MS2 coat protein; apparent KD of MS2 coat protein returned: 41.8

Response field apparent KD of MS2 coat protein (MS2 coat protein) for item AUAAGCUUUGAGAUCCUUAACAUGAGGAUCACCCAUGUUCGUCUUAUGAUGGUCUGAUCCCUGAGGAUCGGACCGUG [Mat - Sensor v3 - turn-off var 1 - JL Mod - D2] (puzzle: Sensor v3, turn-off variant 1) : 277
